Data origin: patent US9856239B1

Listed compounds paired with reported pIC50
Molecular target: human URAT1 (Homo sapiens (Human), UniProt Q96S37)
Sequence (Q96S37 whole entry): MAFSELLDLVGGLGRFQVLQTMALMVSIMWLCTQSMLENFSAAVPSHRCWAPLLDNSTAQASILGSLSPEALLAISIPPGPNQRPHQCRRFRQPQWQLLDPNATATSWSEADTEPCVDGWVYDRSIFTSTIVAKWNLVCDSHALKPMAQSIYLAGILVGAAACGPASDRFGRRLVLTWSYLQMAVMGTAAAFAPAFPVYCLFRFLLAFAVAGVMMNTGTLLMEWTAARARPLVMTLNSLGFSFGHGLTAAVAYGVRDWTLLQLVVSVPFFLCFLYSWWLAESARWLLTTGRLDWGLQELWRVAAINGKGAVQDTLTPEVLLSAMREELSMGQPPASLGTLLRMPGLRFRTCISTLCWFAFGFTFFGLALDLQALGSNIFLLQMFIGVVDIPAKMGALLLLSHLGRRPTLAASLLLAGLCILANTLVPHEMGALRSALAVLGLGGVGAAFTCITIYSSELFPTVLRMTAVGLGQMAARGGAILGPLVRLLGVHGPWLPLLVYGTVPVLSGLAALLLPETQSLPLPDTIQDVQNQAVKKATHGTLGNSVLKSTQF
Assay: Inhibition of 14C-uric acid absorption in URAT1 cell model (HEK-293T cells transfected with human URAT1)
Settings: HEK-293T cells transfected with human URAT1, 14C-uric acid uptake, 5 min, 37 degrees; read-out: URAT1 IC50 Activity level
Description: After 5 min, the buffer was removed from cell wells, added with 100 microliter of ice-cold and no chloride ions-containing HBSS buffer to gently rinse cells within wells so as to stop them from absorbing ^14C-uric acid, the rinsing was repeated 3 times in the same manner. […] Finally, the 96-well plate was put in a MicroBeta Trilux Counter from PerkinElmer and was read, then IC50 values were calculated, and the results are shown in Table 1 below. […]
pIC50: −log10 of the molar value.

A selection of reference data follows.
INSERT INTO results (compound, test_system, result_type, observed) VALUES
  ('N#Cc1ccc(-c2cnccc2SCC2(C(=O)O)CCC2)c2ccccc12', 'human URAT1 (Homo sapiens (Human), UniProt Q96S37)', 'pIC50', '> 7.00'),
  ('CC(C)(Sc1ccncc1-c1ccc(C#N)cn1)C(=O)O', 'human URAT1 (Homo sapiens (Human), UniProt Q96S37)', 'pIC50', '< 6.00'),
  ('Cc1cc(C#N)cnc1-c1cnccc1SC(C)(C)C(=O)O', 'human URAT1 (Homo sapiens (Human), UniProt Q96S37)', 'pIC50', '< 6.00'),
  ('N#Cc1ccc(-c2cnccc2SCC2(CC(=O)O)CC2)cc1', 'human URAT1 (Homo sapiens (Human), UniProt Q96S37)', 'pIC50', '> 7.00');

API: the following record is the query input.
Query: pIC50 of `O=C(O)CC1(CSc2ccncc2-c2ccc(C(=O)O)cn2)CC1` on human URAT1 (Homo sapiens (Human), UniProt Q96S37)?
Reply: < 6.00

----------
Listed molecules paired with reported IC50
Target: human URAT1 (Homo sapiens (Human))
Experiment: Inhibition of 14C-uric acid absorption in URAT1 cell model (HEK-293T cells transfected with human URAT1)
Conditions: HEK-293T cells transfected with human URAT1, 14C-uric acid uptake, 5 min, 37 degrees; read-out: URAT1 IC50 Activity level

A selection of reference data follows.
INSERT INTO assay_data (structure, test_system, result_type, observed) VALUES
  ('N#Cc1ccc(-c2cnccc2Sc2cccc(C(=O)O)c2)c2ccccc12', 'human URAT1 (Homo sapiens (Human))', 'IC50', '100 to 1000 nM'),
  ('N#Cc1ccc(-c2cnccc2OCC2(CC(=O)O)CC2)c2ccccc12', 'human URAT1 (Homo sapiens (Human))', 'IC50', '> 1000 nM'),
  ('N#Cc1ccc(-c2cnccc2SCCC(F)(F)C(=O)O)c2ccccc12', 'human URAT1 (Homo sapiens (Human))', 'IC50', '100 to 1000 nM'),
  ('CC(C)(Sc1ccncc1-c1ccc(C2(O)CC2)cc1)C(=O)O', 'human URAT1 (Homo sapiens (Human))', 'IC50', '100 to 1000 nM'),
  ('N#Cc1ccc(-c2ccccc2SCC2(CC(=O)O)CC2)cc1', 'human URAT1 (Homo sapiens (Human))', 'IC50', '< 100 nM');

API: the following record is the query input.
Query: IC50 for `N#Cc1ccc(-c2cnccc2CCC(=O)O)c2ccccc12` ?
Reply: > 1000 nM
